assay: Pharmacokinetic study in vivo; set-up: species or system BALB/c mice; conditions: male, BALB/c, mouse, plasma, po; mice, p.o., 50 mg/kg; read-out: MRT0-inf
Observable: MRT inf
The answer should read as a number with its unit following.

In: I am curious: what MRT inf value has been reported for CN1CCN(Cc2cccc(C(=O)NC3CCC(=O)NC3=O)c2F)C(=O)C1 (stereo not shown) ?
Out: 1.51 h

====

System: WSU-DLCL-2
Assay: Cell viability (CCK-8) assay
Assay type: cell-based
Settings: Homo sapiens, WSUDLCL2, 96 h, read-out: IC50 (μM) WSU-DLCL-2
Protocol: The plated at a density of 15,000 cells per well, and each well contained 100 µL of medium. Subsequently, different compounds (MGD-AX, MGD-BX, MGD-CX) were added to each well. […] To evaluate the antiproliferative effects of these compounds, the Cell Counting Kit-8 (CCK-8, #CX007, Epizyme, Shanghai, China) was used. All procedures were carried out in strict accordance with the manufacturer’s instructions (Dojindo Laboratories, Mamoto Ken, Japan).
Observable: IC50

In: What does the data say about its IC50? Entry: Nc1cccc2c1C(=O)N(C1CCC(=O)NC1=O)C2=O (stereo not shown) [Pomalidomide, reference compound]
Out: 18.1 µM

====

tested on: MV-4-11; assay: Cell viability (CCK-8) assay; assay type: cell-based; details: Homo sapiens, MV4-11, 96 h, 96 h, CCK-8
In plain terms, low IC50, meaning strictly below 3 µM, gives Yes, and everything else gives No.

Example entries and their recorded answers appear below.
# Molecule, Cat
data = [
    ("O=C1CCC(NC(=O)c2cccc(CN3CCOCC3=O)c2F)C(=O)N1 (stereo not drawn)", "Yes"),
    ("O=C1CCC(NC(=O)c2cccc(CN3CCCC3)n2)C(=O)N1 (stereo not drawn)", "No"),
    ("CN1CCN(Cc2cccc(C(=O)NC3CCC(=O)NC3=O)n2)CC1 (stereo not drawn)", "Yes"),
    ("CC1CCCN(Cc2cccc(C(=O)NC3CCC(=O)NC3=O)c2)C1 (stereo not drawn)", "No"),
]

Then there is this molecule:
In: I'd appreciate it if you could check whether CN1CCN(Cc2cccc(C(=O)NC3CCC(=O)NC3=O)c2F)C(=O)C1 (stereo not drawn) has IC50 smaller than 3 µM.
Out: Yes
